assayRemarks: Solubility measurements by gravimetric method in solvents at 23° C. and 50° C.
Format: physicochemical
conditionDetails: THF, 50 °C, organic solvent or mixture, thermodynamic from solid, THF, 50° C.; read-out: Solubility
readoutLabel: solubility at 2 days (mg/mL)
Kindly provide the numeric value in mg/mL only, without the unit symbol.

Enquiry: Quickly give me recorded solubility at 2 days for O=C(c1ccc(NS(=O)(=O)c2cccc3cccnc23)cc1)N1CCN(CC2CC2)CC1 [Form A, hemisulfate sesquihydrate]
Return: 26

----------
assayRemarks: Solubility measurements by gravimetric method in solvents at 23° C. and 50° C.
Format: physicochemical
conditionDetails: IPA:DMSO:water (70:20:10), 23 °C, organic solvent or mixture, thermodynamic from solid, IPA:DMSO:water (70:20:10), 23° C.; read-out: Solubility
readoutLabel: solubility at 2 days
Provide the measurement as a number trailed by its unit.

Enquiry: Name the recorded solubility at 2 days of the item O=C(c1ccc(NS(=O)(=O)c2cccc3cccnc23)cc1)N1CCN(CC2CC2)CC1 [Form A, hemisulfate sesquihydrate] in your answer.
Return: 1000 µg/mL
